Assign POST Application SETFA herbicidal damage (five point scale) to each entry below.
- System: Setaria faberi (SETFA)
- assay procedure: Post-emergence herbicidal glasshouse test on Setaria faberi
- Assay type: in vivo
- condition label: post-emergence; 1000 g/h; evaluated after 13 days

Task: For the compound shown here, Cn1ncc(-c2ccccc2C#N)c(O)c1=O , give the reported POST Application SETFA herbicidal damage (five point scale).
Result: 1 (1=0-19% damage)

Task: For the compound shown here, CS(=O)(=O)c1cc(Cl)ccc1-c1cnn(C2CC2)c(=O)c1O , give the reported POST Application SETFA herbicidal damage (five point scale).
Result: 5 (5=80-100% damage)

Task: For the compound shown here, Cc1c(-c2c(C#N)nn(C)c(=O)c2O)ccc(S(C)(=O)=O)c1C1=NOCC1 , give the reported POST Application SETFA herbicidal damage (five point scale).
Result: 1 (1=0-19% damage)

Task: For the compound shown here, Cc1ccc(F)cc1-c1cnn(C)c(=O)c1O , give the reported POST Application SETFA herbicidal damage (five point scale).
Result: 1 (1=0-19% damage)

Task: For the compound shown here, CC(C)Oc1nn(C)c(=O)c(O)c1-c1ccc(C(F)(F)F)cc1S(C)(=O)=O , give the reported POST Application SETFA herbicidal damage (five point scale).
Result: 5 (5=80-100% damage)

Task: For the compound shown here, Cc1cccc(-c2c(C(F)(F)F)ccn(-c3cnn(C)c(=O)c3O)c2=O)c1 , give the reported POST Application SETFA herbicidal damage (five point scale).
Result: 5 (5=80-100% damage)

Task: For the compound shown here, CS(=O)(=O)c1ccccc1-c1cnn(CC(F)F)c(=O)c1O , give the reported POST Application SETFA herbicidal damage (five point scale).
Result: 5 (5=80-100% damage)

Task: For the compound shown here, CCCn1ncc(-c2ccc(C(F)(F)F)cc2Cl)c(O)c1=O , give the reported POST Application SETFA herbicidal damage (five point scale).
Result: 2 (2=20-39% damage)

Task: For the compound shown here, CC[S+]([O-])c1ccccc1-c1cnn(COC)c(=O)c1O (stereo not drawn) , give the reported POST Application SETFA herbicidal damage (five point scale).
Result: 4 (4=60-79% damage)

Task: For the compound shown here, COc1ccc(Cn2cccc(-c3cnn(C)c(=O)c3O)c2=O)cc1 , give the reported POST Application SETFA herbicidal damage (five point scale).
Result: 1 (1=0-19% damage)

Task: For the compound shown here, CCCS(=O)(=O)Oc1c(-c2ccc(C(F)(F)F)cc2S(C)(=O)=O)cnn(C)c1=O , give the reported POST Application SETFA herbicidal damage (five point scale).
Result: 5 (5=80-100% damage)

Task: For the compound shown here, Cn1ncc(-c2ccccc2C(F)(F)F)c(O)c1=O , give the reported POST Application SETFA herbicidal damage (five point scale).
Result: 2 (2=20-39% damage)

Task: For the compound shown here, Cc1c(-c2cnn(C(F)F)c(=O)c2O)ccc(S(C)(=O)=O)c1C1=NOCC1 , give the reported POST Application SETFA herbicidal damage (five point scale).
Result: 5 (5=80-100% damage)

Task: For the compound shown here, Cc1ccc(-c2cnn(C)c(=O)c2O)c(S(C)(=O)=O)c1 , give the reported POST Application SETFA herbicidal damage (five point scale).
Result: 5 (5=80-100% damage)

Task: For the compound shown here, C=Cc1ccc(-c2cnn(C)c(=O)c2O)c(S(C)(=O)=O)c1 , give the reported POST Application SETFA herbicidal damage (five point scale).
Result: 5 (5=80-100% damage)

Task: For the compound shown here, Cn1ncc(-c2ccc(C(F)(F)F)nc2S(=O)(=O)N2CCOCC2)c(O)c1=O , give the reported POST Application SETFA herbicidal damage (five point scale).
Result: 5 (5=80-100% damage)

Task: For the compound shown here, Cc1cc(Cl)ccc1-c1cnn(C)c(=O)c1O , give the reported POST Application SETFA herbicidal damage (five point scale).
Result: 1 (1=0-19% damage)

Task: For the compound shown here, Cn1ncc(-c2ccc(Br)cc2S(C)(=O)=O)c(O)c1=O , give the reported POST Application SETFA herbicidal damage (five point scale).
Result: 5 (5=80-100% damage)
